test: LogP using HPLC method; format: physicochemical
measured-endpoint: logP

>  <compound>
Nc1ncnc2c1ncn2CCOCP1(=O)Nc2cccc(F)c2CO1 (stereo not given)

>  <result-number>
0.49

$$$$
>  <compound>
CC(C)(C)c1cccc2c1OP(=O)(COCCn1cnc3c(N)ncnc31)OC2 (stereo not given)

>  <result-number>
0.47

$$$$
>  <compound>
Nc1ncnc2c1ncn2CCOCP1(=O)Nc2ccccc2CO1 (stereo not given)

>  <result-number>
0.23

$$$$
>  <compound>
CC(C)(C)c1cc2c(c(C(C)(C)C)c1)OP(=O)(COCCn1cnc3c(N)ncnc31)OC2 (stereo not given)

>  <result-number>
1.72

$$$$
>  <compound>
Cc1cccc2c1NP(=O)(COCCn1cnc3c(N)ncnc31)OC2 (stereo not given)

>  <result-number>
0.45

$$$$

----------
experiment: Chemical stability in citrate buffer at pH 2.0; format: physicochemical
measured-endpoint: Stability (h)

>  <molecule>
Nc1ncnc2c1ncn2CCOCP1(=O)Nc2ccccc2CO1 (centres undefined)

>  <measured-endpoint>
Stability

>  <unit-name>
h

>  <result-number>
9.6

$$$$
>  <molecule>
Cc1cccc2c1NP(=O)(COCCn1cnc3c(N)ncnc31)OC2 (centres undefined)

>  <measured-endpoint>
Stability

>  <unit-name>
h

>  <result-number>
29

$$$$
>  <molecule>
CC(C)(C)c1cc2c(c(C(C)(C)C)c1)OP(=O)(COCCn1cnc3c(N)ncnc31)OC2 (centres undefined)

>  <measured-endpoint>
Stability

>  <unit-name>
h

>  <result-number>
9.6

$$$$
>  <molecule>
CC(C)(C)c1cccc2c1OP(=O)(COCCn1cnc3c(N)ncnc31)OC2 (centres undefined)

>  <measured-endpoint>
Stability

>  <unit-name>
h

>  <result-number>
23.7

$$$$

----------
test: Chemical stability in phosphate buffer at pH 7.3; assay type: physicochemical; details: read-out: Stability (converted)

>  <compound>
Nc1ncnc2c1ncn2CCOCP1(=O)Nc2cccc(F)c2CO1 (stereo not drawn)

>  <half-life, h>
1.3

$$$$
>  <compound>
Nc1ncnc2c1ncn2CCOCP1(=O)Nc2ccccc2CO1 (stereo not drawn)

>  <half-life, h>
4

$$$$
>  <compound>
Nc1ncnc2c1ncn2CCOCP1(=O)OCc2ccccc2O1 (stereo not drawn)

>  <half-life, h>
0.09

$$$$
>  <compound>
Cc1cccc2c1NP(=O)(COCCn1cnc3c(N)ncnc31)OC2 (stereo not drawn)

>  <half-life, h>
21.3

$$$$
>  <compound>
Cc1cccc2c1OP(=O)(COCCn1cnc3c(N)ncnc31)OC2 (stereo not drawn)

>  <half-life, h>
0.56

$$$$
>  <compound>
CC(C)(C)c1cc2c(c(C(C)(C)C)c1)OP(=O)(COCCn1cnc3c(N)ncnc31)OC2 (stereo not drawn)

>  <half-life, h>
3.05

$$$$
>  <compound>
CC(C)(C)C(=O)OCOP(=O)(COCCn1cnc2c(N)ncnc21)OCOC(=O)C(C)(C)C [ADEFOVIR DIPIVOXIL]

>  <half-life, h>
14.7

$$$$
>  <compound>
CC(C)(C)c1cccc2c1OP(=O)(COCCn1cnc3c(N)ncnc31)OC2 (stereo not drawn)

>  <half-life, h>
4.05

$$$$

----------
assay: Half life in CEM/O cells; type: ADME, cell-based; conditions: human, CEM/O cells (CCRF-CEM cell line)

>  <compound>
CC(C)(C)c1cccc2c1OP(=O)(COCCn1cnc3c(N)ncnc31)OC2 (centres undefined)

>  <half-life (h)>
3

$$$$
>  <compound>
Cc1cccc2c1OP(=O)(COCCn1cnc3c(N)ncnc31)OC2 (centres undefined)

>  <half-life (h)>
0.6

$$$$
>  <compound>
Nc1ncnc2c1ncn2CCOCP1(=O)OCc2ccccc2O1 (centres undefined)

>  <half-life (h)>
0.1

$$$$
>  <compound>
CC(C)(C)c1cc2c(c(C(C)(C)C)c1)OP(=O)(COCCn1cnc3c(N)ncnc31)OC2 (centres undefined)

>  <half-life (h)>
3

$$$$
